experiment description: Quantitative High-Throughput drug screen in 47 multiple myeloma cell lines against the NCATS MIPE library collection: KMS27_JCRB cell viability assay (AID 1918970); also: nearly all actives have a fitted effect of over 30% in size
assay conditions: KMS27 myeloma cells, CellTiter-Glo ATP viability, 48 h
Results filed as inconclusive are left out. Active and inactive are the calls of the source. Calls follow the shape of the dose curve; as a rule, active = well fitted cell-killing curve with a large enough effect; inconclusive = small, poorly fitted or top-dose-only effect, or effect the other way; inactive = no such curve, though single readings can be large or run the other way.
Your reply should match one of these outcome classes. 1.0 = active, 0.0 = inactive

Answered examples (2):
{"cpd smiles": "C[C@H](c1ccc(F)cc1CCCC(=O)O)N(c1cc(F)ccc1F)S(=O)(=O)c1ccc(Cl)cc1", "label value": 0.0}
{"cpd smiles": "Cc1cccc(Nc2nc(N[C@@H]3CCCC[C@H]3N)ncc2C(N)=O)c1", "label value": 1.0}

Asked: What did the test return for "CCCCCCCCCCCCCCCC(=O)O[C@H]1[C@@H](O)[C@@H](O)[C@@H]([C@H](NC(=O)[C@@H]2C[C@@H](CCC)CN2C)[C@H](C)Cl)O[C@@H]1SC" ?
Given back: 1.0

Asked: What did the test return for "COc1c(C)cnc(Cn2cnc3c(Cl)nc(N)nc32)c1C" ?
Given back: 1.0
